Value source: patent US20100190826A1

pIC50 values by entry
- target.under.test: UniProt:P37058
- Sequence (P37058 whole entry): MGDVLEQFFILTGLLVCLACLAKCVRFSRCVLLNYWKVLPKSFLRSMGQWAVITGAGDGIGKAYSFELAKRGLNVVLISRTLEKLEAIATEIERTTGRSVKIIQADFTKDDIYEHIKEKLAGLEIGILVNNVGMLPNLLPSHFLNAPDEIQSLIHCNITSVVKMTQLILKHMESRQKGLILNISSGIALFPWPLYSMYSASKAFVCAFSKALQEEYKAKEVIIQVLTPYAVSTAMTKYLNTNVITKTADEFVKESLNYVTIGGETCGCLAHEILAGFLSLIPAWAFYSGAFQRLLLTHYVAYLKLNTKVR
pIC50 here: minus log base 10 of the concentration, concentration in moles per litre.

COCCc1cn(-c2cccc(C(=O)O)c2)c2ccc(C(F)(F)F)cc12    5.60

Challenge: Please give the measured pIC50 for this compound: "O=C(O)c1cccc(-n2c(-c3ccccc3)nc3cc(C(F)(F)F)ccc32)c1"
Response given: 5.19

Challenge: And what about the compound "O=C(O)c1cccc(-n2cc(-c3ccccc3)c3cc(C(F)(F)F)ccc32)c1" ?
Response given: 5.74

---

- target.under.test: human 17βHSD type 5-expressing LNCaP cells (Homo sapiens, UniProt P42330)
- Sequence (P42330 1-323): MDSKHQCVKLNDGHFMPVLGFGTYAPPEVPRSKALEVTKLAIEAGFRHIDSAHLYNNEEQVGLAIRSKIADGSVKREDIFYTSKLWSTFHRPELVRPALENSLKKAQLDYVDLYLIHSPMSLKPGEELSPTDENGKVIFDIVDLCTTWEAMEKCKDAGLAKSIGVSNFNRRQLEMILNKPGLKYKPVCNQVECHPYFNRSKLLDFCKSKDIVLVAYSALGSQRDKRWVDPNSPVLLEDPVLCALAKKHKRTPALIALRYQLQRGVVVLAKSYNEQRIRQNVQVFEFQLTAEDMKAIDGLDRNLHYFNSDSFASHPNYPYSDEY
- test.protocol: Cell growth inhibitory activity using LNCaP cells expressing human 17βHSD type 5 (androstenedione-stimulated, CellTiter-Glo)
- Type: cell-based
- details: androstenedione 10 nM, culturing for 7 days; read-out: LNCaP-17β5 IC50
value.kind: GI50 (nM)
Number in nM, nothing else.

O=C(O)c1cccc(-n2c(Cc3ccccc3)nc3cc(C(F)(F)F)ccc32)c1 [Example 38]    45
COc1nc2cc(C(F)(F)F)ccc2n1-c1cccc(C(=O)O)c1 [Example 32]    46
Cc1nc2cc(C(F)(F)F)ccc2n1-c1cccc(C(=O)O)c1 [Example 21]    102

Challenge: Please give the measured GI50 for this compound: COCCc1cn(-c2cccc(C(=O)O)c2)c2ccc(C(F)(F)F)cc12 [Example 47]
Response given: 92

Challenge: And what about the compound O=C(O)c1cccc(-n2cc(-c3ccccc3)c3cc(C(F)(F)F)ccc32)c1 [Example 6] ?
Response given: 46

Challenge: And what about the compound O=C(O)c1cccc(-n2c(-c3ccccc3)nc3cc(C(F)(F)F)ccc32)c1 [Example 17] ?
Response given: 66

---

- target.under.test: human 17βHSD type 5-expressing LNCaP cells (Homo sapiens)
- test.protocol: Cell growth inhibitory activity using LNCaP cells expressing human 17βHSD type 5 (androstenedione-stimulated, CellTiter-Glo)
- Type: cell-based
- details: androstenedione 10 nM, culturing for 7 days; read-out: LNCaP-17β5 IC50
GI50 values by entry
Number in nM, nothing else.

N#Cc1ccc2c(ccn2-c2cccc(C(=O)O)c2)c1    6680
O=C(O)c1cccc(-n2cnc3cc(C(F)(F)F)ccc32)c1    101
O=C(O)c1cccc(-n2c(COc3ccccc3)nc3cc(C(F)(F)F)ccc32)c1    34

Challenge: Please give the measured GI50 for this compound: "O=C(O)c1cccc(-n2c(C(F)(F)F)nc3cc(C(F)(F)F)ccc32)c1"
Response given: 141

---

- target.under.test: human 17βHSD type 5 (Homo sapiens, UniProt P42330)
- Construct: A full-length cDNA encoding human 17βHSD type 5; GST (cleaved yes)
- Sequence (P42330 1-323): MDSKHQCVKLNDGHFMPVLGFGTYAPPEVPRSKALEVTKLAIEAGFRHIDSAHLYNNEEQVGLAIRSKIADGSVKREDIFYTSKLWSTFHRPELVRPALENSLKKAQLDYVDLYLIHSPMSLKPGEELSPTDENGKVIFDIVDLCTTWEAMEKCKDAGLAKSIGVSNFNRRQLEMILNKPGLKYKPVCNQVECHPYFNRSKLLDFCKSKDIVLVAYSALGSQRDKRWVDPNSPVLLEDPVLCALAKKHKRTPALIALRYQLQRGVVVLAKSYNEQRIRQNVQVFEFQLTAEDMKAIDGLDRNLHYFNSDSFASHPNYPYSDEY
- test.protocol: Measurement of enzyme activity of human 17βHSD type 5 (testosterone production from androstenedione)
- details: purified enzyme 10 μg/mL, androstenedione 300 nM, NADPH 200 μM, pH 6.0, room temperature 2 hours; read-out: Type5 IC50
value.kind: pIC50
pIC50 here: minus log base 10 of the concentration, concentration in moles per litre.

Worked examples follow.
O=C(O)c1cccc(-n2cc(-c3ccccc3)c3cc(C(F)(F)F)ccc32)c1    7.30
COc1nc2cc(C(F)(F)F)ccc2n1-c1cccc(C(=O)O)c1    6.92
Cc1nc2cc(C(F)(F)F)ccc2n1-c1cccc(C(=O)O)c1    6.96

Challenge: API: value(readout= pIC50, system= human 17βHSD type 5 (Homo sapiens, UniProt P42330), query= "O=C(O)c1cccc(-n2cnc3cc(C(F)(F)F)ccc32)c1" )
Response given: 6.92

Challenge: And what about the molecule "O=C(O)c1cccc(-n2c(COc3ccccc3)nc3cc(C(F)(F)F)ccc32)c1" ?
Response given: 7.40

Challenge: And what about the molecule "O=C(O)c1cccc(-n2c(-c3ccccc3)nc3cc(C(F)(F)F)ccc32)c1" ?
Response given: 6.74

Challenge: And what about the molecule "O=C(O)c1cccc(-n2c(C(F)(F)F)nc3cc(C(F)(F)F)ccc32)c1" ?
Response given: 7.15

Challenge: And what about the molecule "N#Cc1ccc2c(ccn2-c2cccc(C(=O)O)c2)c1" ?
Response given: 6.70

Challenge: And what about the molecule "COCCc1cn(-c2cccc(C(=O)O)c2)c2ccc(C(F)(F)F)cc12" ?
Response given: 6.74

Challenge: And what about the molecule "O=C(O)c1cccc(-n2c(Cc3ccccc3)nc3cc(C(F)(F)F)ccc32)c1" ?
Response given: 7.02
